Reported IC50 is given for each of the following molecules.
Experimental target: Signal transducer and activator of transcription 3 (Homo sapiens, UniProt P40763)
Sequence (P40763 whole entry): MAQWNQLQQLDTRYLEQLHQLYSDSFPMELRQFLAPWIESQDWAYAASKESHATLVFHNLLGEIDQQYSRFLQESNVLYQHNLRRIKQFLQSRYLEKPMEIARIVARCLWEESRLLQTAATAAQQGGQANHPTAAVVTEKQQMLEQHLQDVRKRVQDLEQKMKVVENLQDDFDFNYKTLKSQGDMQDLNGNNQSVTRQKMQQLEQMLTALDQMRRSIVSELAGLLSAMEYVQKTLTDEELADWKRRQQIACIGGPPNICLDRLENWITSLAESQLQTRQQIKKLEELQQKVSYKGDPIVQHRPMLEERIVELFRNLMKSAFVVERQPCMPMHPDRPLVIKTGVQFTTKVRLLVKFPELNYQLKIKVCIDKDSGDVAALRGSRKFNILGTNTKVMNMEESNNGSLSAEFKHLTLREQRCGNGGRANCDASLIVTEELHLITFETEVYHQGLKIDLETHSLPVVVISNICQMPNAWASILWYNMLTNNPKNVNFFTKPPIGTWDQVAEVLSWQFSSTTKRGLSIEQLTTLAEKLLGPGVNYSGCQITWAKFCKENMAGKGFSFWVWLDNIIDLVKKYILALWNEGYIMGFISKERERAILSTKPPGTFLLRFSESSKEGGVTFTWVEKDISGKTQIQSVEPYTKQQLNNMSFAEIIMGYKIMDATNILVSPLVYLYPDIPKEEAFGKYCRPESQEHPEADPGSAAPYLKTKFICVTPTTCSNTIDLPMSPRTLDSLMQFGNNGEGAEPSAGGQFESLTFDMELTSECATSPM
Method summary: Inhibition of STAT3 in human K562 cells assessed as reduction in STAT3 phosphorylation
Answer with a number only, understood to be in µM.

CCc1ccc(Nc2nc3cc(NC(=O)c4ccccc4)ccc3o2)cc1 | 5.8

With those in mind, consider the next molecule.
Sample CCc1ccc(Nc2nc3cc(N)ccc3o2)cc1 — what was its IC50?
18.9
